The measured values listed here are drawn from paper PMC8713164.

Assay: microsomal stability, mouse
Type: in vitro ADME
Conditions: microsomes
Protocol: Kinetic solubility, microsomal stability, and plasma stability were determined following our internal protocol (Symeres). The Caco-2 and PPB determinations were performed by Cyprotex.
readout-kind: microsomal CLint at 1 h (µL/min/mg)

[[record]]
compound = "CCOc1ccc(-c2nnc([C@H]3C[C@H](NC(=O)c4cccc5nccnc45)C3)n2-c2ccccc2F)nc1 [Compound 24]"
readout_kind = "microsomal CLint at 1 h"
recorded_result = 22


###

Assay: mouse peroral pharmacokinetic analysis
Type: in vivo
Settings: IRC, in vivo; mouse PO 5 mg/kg
readout-kind: Cmax at 24 h (ng/mL)

[[record]]
molecule = "Cc1cccc(-c2nnc([C@H]3C[C@H](NC(=O)c4cccc5nccnc45)C3)n2-c2ccccc2F)n1 [Compound 31a]"
recorded_result = 2770

[[record]]
molecule = "CCOc1ccc(-c2nnc([C@H]3C[C@H](NC(=O)c4ccnc5cccnc45)C3)n2-c2ccc(C)s2)nc1 [Compound 22a]"
recorded_result = 779

[[record]]
molecule = "Cc1cccc(-c2nnc([C@H]3C[C@H](NC(=O)c4cc(F)cc5nccnc45)C3)n2-c2ccccc2F)n1 [Compound 31b]"
recorded_result = 5800

[[record]]
molecule = "CCOc1ccc(-c2nnc([C@H]3C[C@H](NC(=O)c4cccc5nccnc45)C3)n2-c2ccccc2F)nc1"
recorded_result = 1970

[[record]]
molecule = "CCOc1ccc(-c2nnc([C@H]3C[C@H](NC(=O)c4ccnc5cc(F)cnc45)C3)n2-c2ccncc2)nc1 [Compound 18b]"
recorded_result = 285

